# targetOrSystem: Nav1.7 (or SCN9A) channel (Homo sapiens, UniProt Q15858)
# Construct: expressed in transfected cells
# Sequence (Q15858 whole entry): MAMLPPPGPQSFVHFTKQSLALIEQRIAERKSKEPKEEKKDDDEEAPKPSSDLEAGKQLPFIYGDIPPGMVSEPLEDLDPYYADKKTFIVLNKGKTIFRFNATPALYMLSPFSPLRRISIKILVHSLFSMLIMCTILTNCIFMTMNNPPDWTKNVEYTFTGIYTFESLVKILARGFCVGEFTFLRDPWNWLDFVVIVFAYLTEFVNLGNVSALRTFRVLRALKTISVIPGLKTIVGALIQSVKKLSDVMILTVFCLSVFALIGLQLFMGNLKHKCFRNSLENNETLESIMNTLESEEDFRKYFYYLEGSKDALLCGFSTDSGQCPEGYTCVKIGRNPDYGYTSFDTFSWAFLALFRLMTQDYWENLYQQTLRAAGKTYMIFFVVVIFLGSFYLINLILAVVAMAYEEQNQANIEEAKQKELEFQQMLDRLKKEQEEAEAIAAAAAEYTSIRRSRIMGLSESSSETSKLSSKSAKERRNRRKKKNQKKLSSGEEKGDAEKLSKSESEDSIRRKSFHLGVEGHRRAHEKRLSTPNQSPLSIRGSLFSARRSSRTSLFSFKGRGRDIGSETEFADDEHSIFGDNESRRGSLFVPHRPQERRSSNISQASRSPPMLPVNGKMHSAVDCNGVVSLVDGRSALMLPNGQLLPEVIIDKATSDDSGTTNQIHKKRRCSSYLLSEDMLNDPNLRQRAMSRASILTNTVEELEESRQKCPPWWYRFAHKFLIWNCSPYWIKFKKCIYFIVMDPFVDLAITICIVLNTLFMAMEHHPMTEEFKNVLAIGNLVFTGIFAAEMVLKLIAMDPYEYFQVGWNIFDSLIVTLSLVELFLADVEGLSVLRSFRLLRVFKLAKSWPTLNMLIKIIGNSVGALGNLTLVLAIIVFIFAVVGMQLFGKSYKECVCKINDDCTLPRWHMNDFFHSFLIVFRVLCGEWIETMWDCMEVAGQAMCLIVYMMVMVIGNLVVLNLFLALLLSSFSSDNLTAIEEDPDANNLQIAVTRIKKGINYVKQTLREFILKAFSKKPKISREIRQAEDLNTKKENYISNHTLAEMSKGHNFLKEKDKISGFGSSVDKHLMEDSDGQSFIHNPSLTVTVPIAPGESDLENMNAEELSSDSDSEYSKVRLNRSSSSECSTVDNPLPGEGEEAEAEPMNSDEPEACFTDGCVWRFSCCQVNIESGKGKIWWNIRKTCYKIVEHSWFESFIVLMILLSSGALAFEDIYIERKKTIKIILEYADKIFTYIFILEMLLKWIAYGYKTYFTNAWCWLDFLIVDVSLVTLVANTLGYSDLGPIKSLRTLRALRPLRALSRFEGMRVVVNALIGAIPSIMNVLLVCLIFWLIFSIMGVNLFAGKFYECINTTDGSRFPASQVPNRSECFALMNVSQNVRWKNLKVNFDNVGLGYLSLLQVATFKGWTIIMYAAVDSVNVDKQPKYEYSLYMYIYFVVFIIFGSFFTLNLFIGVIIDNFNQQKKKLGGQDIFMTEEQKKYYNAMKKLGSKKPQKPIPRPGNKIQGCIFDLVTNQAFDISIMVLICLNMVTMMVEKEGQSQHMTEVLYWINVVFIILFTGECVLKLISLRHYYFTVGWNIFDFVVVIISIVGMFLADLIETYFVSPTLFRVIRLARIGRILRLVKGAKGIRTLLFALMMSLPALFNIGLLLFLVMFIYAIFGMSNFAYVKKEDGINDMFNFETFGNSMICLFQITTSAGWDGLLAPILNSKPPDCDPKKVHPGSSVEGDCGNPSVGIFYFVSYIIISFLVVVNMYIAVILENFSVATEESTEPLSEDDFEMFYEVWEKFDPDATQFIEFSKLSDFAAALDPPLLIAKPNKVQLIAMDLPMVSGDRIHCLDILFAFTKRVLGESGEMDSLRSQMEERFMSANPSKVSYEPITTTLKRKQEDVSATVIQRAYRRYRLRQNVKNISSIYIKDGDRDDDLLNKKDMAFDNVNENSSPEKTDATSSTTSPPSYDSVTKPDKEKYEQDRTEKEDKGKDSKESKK
# methodNotes: Nav1.7 (hSCN9A) electrophysiology assay, PatchXpress platform
# Assay type: cell-based
# assayContext: estimated IC50 from single point electrophysiology data, HEK cells stably expressing hSCN9A, held at V1/2 of inactivation, read-out: Nav1.7 EIC50
quantityKind: IC50 (nM)

Completed entries (count: 5):
| testSmiles | unitOfMeasure | result |
| --- | --- | --- |
| CS(=O)(=O)NC(=O)c1ccc(OCC2CCCCC2)cc1 | nM | 1300 |
| CS(=O)(=O)NC(=O)c1cc(Cl)c(OCc2ccc(Cl)c(C(F)(F)F)c2)cc1F | nM | 14 |
| CC(C)c1cccc(OCc2cc(F)c(C(=O)NS(C)(=O)=O)cc2F)c1 | nM | 330 |
| CS(=O)(=O)NC(=O)c1cc(F)c(OCc2ccc3ccccc3c2)cc1F | nM | 940 |
| CS(=O)(=O)NC(=O)c1ccc(OCc2ccc(Cl)cc2)c(Cl)c1 | nM | 6400 |

A. CS(=O)(=O)NC(=O)c1ccc(OCc2ccc(Cl)cc2)cc1
B. CS(=O)(=O)NC(=O)c1cc(F)c(COc2ccc(F)cc2)cc1F
**Q:** Pick one: A or B . Which has the bigger IC50 number? Refer to your chosen item by its label in the answer.
**A:** A

* * *

# targetOrSystem: Nav1.7 (or SCN9A) channel (Homo sapiens)
# Construct: expressed in transfected cells
# methodNotes: Nav1.7 (hSCN9A) electrophysiology assay, PatchXpress platform
# Assay type: cell-based
# assayContext: estimated IC50 from single point electrophysiology data, HEK cells stably expressing hSCN9A, held at V1/2 of inactivation, read-out: Nav1.7 EIC50
pIC50: −log10 of the molar value.
quantityKind: pIC50

a. CS(=O)(=O)NC(=O)c1cc(F)c(COc2c(F)cccc2Cl)cc1F
b. CS(=O)(=O)NC(=O)c1ccc(COc2ccc(Cl)c(Cl)c2)c(Cl)c1
c. CS(=O)(=O)NC(=O)c1cc(F)c(COc2cccc3ccccc23)cc1F
**Q:** Sort ascending by pIC50. Provide the labels, sequenced as the question asks.
**A:** a, c, b
(a: 5.40, c: 6.13, b: 7.07)

a. COc1cc(C)ccc1COc1cc(F)c(C(=O)NS(C)(=O)=O)cc1F
b. CS(=O)(=O)NC(=O)c1cc(F)c(COc2ccccc2F)cc1F
c. CS(=O)(=O)NC(=O)c1ccc(OCc2ccc(OC(F)(F)F)cc2)cc1
**Q:** Write the entries in order, lowest recorded pIC50 first. Provide the labels, sequenced as the question asks.
**A:** a, b, c
(a: 5.30, b: 5.66, c: 6.24)

1. COc1cc(COc2cc(F)c(C(=O)NS(C)(=O)=O)cc2F)ccc1C
2. CC(C)Oc1ccc(F)cc1OCc1cc(F)c(C(=O)NS(C)(=O)=O)cc1F
3. CS(=O)(=O)NC(=O)c1cc(F)c(OCc2ccc(C(F)(F)F)c(Cl)c2)cc1F
4. CS(=O)(=O)NC(=O)c1cc(F)c(COc2cccc(C(F)(F)F)c2)cc1F
5. CS(=O)(=O)NC(=O)c1cc(F)c(COc2ccc(F)c(C(F)(F)F)c2)cc1F
**Q:** Please rank these compounds by pIC50 in descending order. Provide the labels, sequenced as the question asks.
**A:** 4, 5, 3, 1, 2
(4: 6.85, 5: 6.22, 3: 5.82, 1: 5.44, 2: 5.01)

P. CS(=O)(=O)NC(=O)c1cc(F)c(COc2ccc(Cl)c(OC(F)F)c2)cc1F
Q. CS(=O)(=O)NC(=O)c1cc(F)c(COc2ccc(Cl)c(OC(F)(F)F)c2)cc1F
R. COc1ccc(Cl)c(OCc2cc(F)c(C(=O)NS(C)(=O)=O)cc2F)c1
S. CS(=O)(=O)NC(=O)c1cc(F)c(OCc2cccc(Cl)c2Cl)cc1F
T. COc1ccc(OC)c(COc2cc(F)c(C(=O)NS(C)(=O)=O)cc2F)c1
**Q:** Please rank these compounds by pIC50 in descending order. Provide the labels, sequenced as the question asks.
**A:** Q, P, R, S, T
(Q: 7.92, P: 6.66, R: 5.66, S: 5.42, T: 4.96)
